- TESTED_ON: FLT3 (Homo sapiens)
- Sequence (P36888 27-993, species assumed): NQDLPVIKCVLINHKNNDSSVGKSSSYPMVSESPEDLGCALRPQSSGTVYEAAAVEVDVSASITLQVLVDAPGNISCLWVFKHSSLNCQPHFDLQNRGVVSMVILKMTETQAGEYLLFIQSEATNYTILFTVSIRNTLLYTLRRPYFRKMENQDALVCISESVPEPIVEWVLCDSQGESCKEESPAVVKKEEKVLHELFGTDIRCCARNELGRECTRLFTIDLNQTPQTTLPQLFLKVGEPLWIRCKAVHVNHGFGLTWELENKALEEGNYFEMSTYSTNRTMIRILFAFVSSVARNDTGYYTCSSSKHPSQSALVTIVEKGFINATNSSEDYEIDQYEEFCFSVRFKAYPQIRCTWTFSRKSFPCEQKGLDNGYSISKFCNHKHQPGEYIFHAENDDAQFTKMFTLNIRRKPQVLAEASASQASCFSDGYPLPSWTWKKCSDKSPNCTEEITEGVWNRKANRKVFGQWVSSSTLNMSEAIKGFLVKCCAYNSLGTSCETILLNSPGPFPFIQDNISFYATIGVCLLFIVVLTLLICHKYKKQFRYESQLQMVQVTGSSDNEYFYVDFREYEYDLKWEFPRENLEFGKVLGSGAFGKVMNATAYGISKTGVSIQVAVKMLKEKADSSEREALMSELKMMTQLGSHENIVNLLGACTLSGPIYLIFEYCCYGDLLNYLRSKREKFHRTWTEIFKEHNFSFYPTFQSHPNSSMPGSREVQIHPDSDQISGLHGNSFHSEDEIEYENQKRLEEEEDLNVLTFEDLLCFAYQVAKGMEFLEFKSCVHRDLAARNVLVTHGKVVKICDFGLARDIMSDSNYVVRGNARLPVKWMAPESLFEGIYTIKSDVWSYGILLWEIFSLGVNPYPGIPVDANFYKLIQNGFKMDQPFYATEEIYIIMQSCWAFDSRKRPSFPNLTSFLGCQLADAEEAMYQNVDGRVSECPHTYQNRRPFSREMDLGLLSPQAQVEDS
- PROTOCOL: TR-FRET kinase activity assay, FLT3
- Type: biochemical
- APPLIED_CONDITIONS: ATP at Km, 60 minutes
ENDPOINT_LABEL: IC50

In the examples that follow, each entry is paired with its recorded IC50.
>  <COMPOUND>
COC[C@H](C)Nc1ncc2c(-c3ccc(C#N)c(F)c3)cc([C@H]3CC[C@H](O)CC3)n2n1 [Compound 169]

>  <RESULT>
1000 to 10000 nM

$$$$
>  <COMPOUND>
CC[C@H](C)Nc1ncc2c(C3CCN(c4nccc(C)n4)CC3)cc([C@H]3CC[C@H](O)CC3)n2n1 [Compound 136]

>  <RESULT>
1000 to 10000 nM

$$$$
>  <COMPOUND>
COC[C@H](C)Nc1ncc2c(-c3ccnc(C(F)(F)F)c3)cc([C@H]3CC[C@H](O)CC3)n2n1 [Compound 584]

>  <RESULT>
1000 to 10000 nM

$$$$
>  <COMPOUND>
COC[C@H](C)Nc1ncc2c(-c3cccc(CN4CCN(C)CC4)c3)cc([C@H]3CC[C@H](O)CC3)n2n1 [Compound 218]

>  <RESULT>
100 to 1000 nM

$$$$
>  <COMPOUND>
COC[C@H](C)Nc1ncc2c(-c3cnn([C@@H]4CCNC4=O)c3)cc([C@H]3CC[C@H](O)CC3)n2n1 [Compound 315]

>  <RESULT>
100 to 1000 nM

$$$$

The recorded IC50 for entry COC[C@H](C)Nc1ncc2c(C3=C[C@@H]4CC[C@H](C3)N4C(C)=O)cc([C@H]3CC[C@H](O)CC3)n2n1 [Compound 462] equals 100 to 1000 nM

The recorded IC50 for entry COC[C@H](C)Nc1ncc2c(-c3ccnc(N4CC(C)(O)C4)c3)cc(C3CCC(O)CC3)n2n1 (stereo partly shown) [Compound 632] equals 100 to 1000 nM

---

# IC50 values compiled below
- TESTED_ON: AXL (Homo sapiens)
- Sequence (P30530 26-894): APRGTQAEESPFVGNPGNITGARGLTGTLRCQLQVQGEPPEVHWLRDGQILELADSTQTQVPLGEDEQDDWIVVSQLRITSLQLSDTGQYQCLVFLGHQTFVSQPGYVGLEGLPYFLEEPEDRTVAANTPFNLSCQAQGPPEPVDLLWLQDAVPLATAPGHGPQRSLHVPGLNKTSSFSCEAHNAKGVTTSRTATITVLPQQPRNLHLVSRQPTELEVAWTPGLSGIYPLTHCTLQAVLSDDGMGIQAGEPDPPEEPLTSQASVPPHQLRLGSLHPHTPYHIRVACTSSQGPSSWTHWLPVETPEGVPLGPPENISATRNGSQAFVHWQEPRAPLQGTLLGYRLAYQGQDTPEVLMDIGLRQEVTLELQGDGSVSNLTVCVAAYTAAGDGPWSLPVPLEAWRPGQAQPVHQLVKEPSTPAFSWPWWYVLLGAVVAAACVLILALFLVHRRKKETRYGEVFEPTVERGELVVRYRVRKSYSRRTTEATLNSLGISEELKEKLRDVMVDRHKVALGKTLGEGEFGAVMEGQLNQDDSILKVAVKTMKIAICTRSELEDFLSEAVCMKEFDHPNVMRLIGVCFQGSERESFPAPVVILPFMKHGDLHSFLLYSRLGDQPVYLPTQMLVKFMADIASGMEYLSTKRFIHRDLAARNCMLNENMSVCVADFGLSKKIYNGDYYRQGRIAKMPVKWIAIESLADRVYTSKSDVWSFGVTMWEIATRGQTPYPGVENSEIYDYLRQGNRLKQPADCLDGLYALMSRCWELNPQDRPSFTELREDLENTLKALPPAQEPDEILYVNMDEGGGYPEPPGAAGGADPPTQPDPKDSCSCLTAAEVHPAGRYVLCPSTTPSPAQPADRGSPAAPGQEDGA

>  <MOLECULE>
COC[C@H](C)Nc1ncc2c(-c3cnn(C(C)(C)C(=O)N4CCS(=O)(=O)CC4)c3)cc([C@H]3CC[C@H](O)CC3)n2n1

>  <TESTED_ON>
AXL (Homo sapiens)

>  <RESULT>
≤ 100 nM

$$$$
>  <MOLECULE>
COC[C@H](C)Nc1ncc2c(-c3ccc4c(c3)CC(=O)N4)cc([C@H]3CC[C@H](O)CC3)n2n1

>  <TESTED_ON>
AXL (Homo sapiens)

>  <RESULT>
100 to 1000 nM

$$$$
>  <MOLECULE>
COC[C@H](C)Nc1ncc2c(-c3cnn(C4COC4)c3)cc([C@H]3CC[C@@](O)(C(C)C)CC3)n2n1

>  <TESTED_ON>
AXL (Homo sapiens)

>  <RESULT>
≤ 100 nM

$$$$
>  <MOLECULE>
CC(CC1COC1)Nc1ncc2c(-c3cnn(C4COC4)c3)cc([C@H]3CC[C@H](O)CC3)n2n1 (mixture of isomers)

>  <TESTED_ON>
AXL (Homo sapiens)

>  <RESULT>
1000 to 10000 nM

$$$$
>  <MOLECULE>
COC[C@H](C)Nc1ncc2c(-c3cn(C)nn3)cc([C@H]3CC[C@H](O)CC3)n2n1

>  <TESTED_ON>
AXL (Homo sapiens)

>  <RESULT>
100 to 1000 nM

$$$$

Response field IC50 (AXL (Homo sapiens)) for item COC[C@H](C)Nc1ncc2c(-c3cnn(CC4CC(=O)N(C)C4)c3)cc([C@H]3CC[C@H](O)CC3)n2n1 (stereo partly drawn) : ≤ 100 nM

Response field IC50 (AXL (Homo sapiens)) for item COCC(C)Nc1ncc2c(-c3cnn(C(C)(C)C(=O)N4CCOC(C)(C)C4)c3)cc(C3CCC(O)CC3)n2n1 (stereo not drawn) : ≤ 100 nM

Response field IC50 (AXL (Homo sapiens)) for item COCCC(C)Nc1ncc2c(-c3ccc(CN4CCCC4)cc3)cc(C3CCC(O)CC3)n2n1 (stereo not drawn) : 100 to 1000 nM

Response field IC50 (AXL (Homo sapiens)) for item COC[C@H](C)Nc1ncc2c(-c3ccc(CN4CCOCC4)cc3)cc([C@H]3CC[C@H](NS(C)(=O)=O)CC3)n2n1 : ≤ 100 nM

Response field IC50 (AXL (Homo sapiens)) for item COC[C@H](C)Nc1ncc2c(-c3cnn(C4CN(CC(F)(F)F)C4)c3)cc([C@H]3CC[C@H](O)CC3)n2n1 : ≤ 100 nM

Response field IC50 (AXL (Homo sapiens)) for item CC[C@H](C)Nc1ncc2c(-c3ccc(CN4CCN(C)CC4)cc3)cc([C@H]3CC[C@H](O)CC3)n2n1 : ≤ 100 nM

---

- TESTED_ON: MERTK (Homo sapiens, UniProt Q12866)
- Sequence (Q12866 21-999): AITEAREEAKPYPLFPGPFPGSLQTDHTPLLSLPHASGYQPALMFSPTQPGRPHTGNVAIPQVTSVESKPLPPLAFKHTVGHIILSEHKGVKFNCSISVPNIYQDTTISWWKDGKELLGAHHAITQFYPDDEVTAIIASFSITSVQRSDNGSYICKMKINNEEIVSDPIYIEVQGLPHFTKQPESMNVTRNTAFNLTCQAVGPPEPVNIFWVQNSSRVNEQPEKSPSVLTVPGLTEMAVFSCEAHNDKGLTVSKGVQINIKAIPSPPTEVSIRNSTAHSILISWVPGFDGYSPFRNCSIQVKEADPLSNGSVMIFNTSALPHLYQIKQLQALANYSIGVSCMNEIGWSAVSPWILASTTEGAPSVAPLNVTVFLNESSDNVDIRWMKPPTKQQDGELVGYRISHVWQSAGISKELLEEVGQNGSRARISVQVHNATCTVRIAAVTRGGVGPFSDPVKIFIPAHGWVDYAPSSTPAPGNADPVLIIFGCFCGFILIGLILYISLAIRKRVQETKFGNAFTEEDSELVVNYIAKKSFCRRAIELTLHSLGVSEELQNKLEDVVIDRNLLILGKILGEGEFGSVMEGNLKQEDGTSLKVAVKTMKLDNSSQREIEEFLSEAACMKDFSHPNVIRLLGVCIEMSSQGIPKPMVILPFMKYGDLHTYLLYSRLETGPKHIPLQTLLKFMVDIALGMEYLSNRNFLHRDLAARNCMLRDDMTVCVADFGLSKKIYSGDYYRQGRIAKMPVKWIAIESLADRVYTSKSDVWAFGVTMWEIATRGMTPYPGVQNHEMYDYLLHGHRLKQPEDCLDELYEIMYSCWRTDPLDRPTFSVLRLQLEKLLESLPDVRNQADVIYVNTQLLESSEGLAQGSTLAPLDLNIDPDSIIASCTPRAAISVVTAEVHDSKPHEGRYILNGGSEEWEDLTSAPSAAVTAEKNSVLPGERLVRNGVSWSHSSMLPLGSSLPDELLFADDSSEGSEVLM
ENDPOINT_LABEL: IC50

In the examples that follow, each entry is paired with its recorded IC50.
>  <MOLECULE>
COCC(C)Nc1ncc2c(-c3ccc(C(C)N4CCCC4)cc3)cc(C3CCC(O)CC3)n2n1 (stereo not shown) [Compound 164]

>  <IC50>
≤ 100 nM

$$$$
>  <MOLECULE>
C[C@@H](Nc1ncc2c(-c3cnn(C4COC4)c3)cc([C@H]3CC[C@H](O)CC3)n2n1)C(F)(F)F [Compound 527]

>  <IC50>
≤ 100 nM

$$$$

The recorded IC50 for entry COC[C@H](C)Nc1ncc2c(-c3cnn(C(C)(C)C(=O)N4CCCC4)c3)cc([C@H]3CC[C@H](O)CC3)n2n1 [Compound 612] equals ≤ 100 nM

The recorded IC50 for entry CCC(=O)N1CCN(c2cc(-c3cc([C@H]4CC[C@H](O)CC4)n4nc(N[C@@H](C)COC)ncc34)ccn2)CC1 [Compound 432] equals ≤ 100 nM

The recorded IC50 for entry C[C@@H](COC(F)F)Nc1ncc2c(-c3cnn(CCS(C)(=O)=O)c3)cc([C@H]3CC[C@H](O)CC3)n2n1 [Compound 436] equals ≤ 100 nM

The recorded IC50 for entry C[C@@H](CC(F)(F)F)Nc1ncc2c(-c3cncc([S@](C)(=N)=O)c3)cc([C@H]3CC[C@H](O)CC3)n2n1 [Compound 582] equals ≤ 100 nM

The recorded IC50 for entry COC[C@H](C)Nc1ncc2c(-c3cnn([C@H]4CCN(C(C)=O)C4)c3)cc([C@H]3CC[C@H](O)CC3)n2n1 [Compound 397] equals ≤ 100 nM
